Kindly supply the reported normalized growth values for the records listed here.
# ASSAY_NAME: chemical genetic growth profiling, strain panel (AID 1159580);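 note: tested at 20 µM; growth read once vehicle control cultures reached saturation at 30 °C; 1 = growth at the plate median or of vehicle wells; lower values mean less growth of the strain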
# CONDITIONS_USED: S. cerevisiae deletion strains, growth OD, locus YDR392W, strain spt3, active compounds read low
About 2,000 (36%) of roughly 5,500 compounds were called active. Inconclusive results (about 18%) are left out. Some of the results follow.
Numbers only.

COMPOUND	MEASURED_VALUE
C[C@@H]1CC[C@H]2[C@@H](C)C(O)O[C@@H]3O[C@@]4(C)CC[C@@H]1[C@]32OO4 (stereo not given in full)	0.133

// batch mode: one normalized growth value per listed entry
1. COc1ccc2[nH]cc(CCN)c2c1
2. C[C@@H]1CC[C@H]2[C@@H](C)C(=O)O[C@@H]3O[C@@]4(C)CC[C@@H]1[C@]32OO4
3. CC(C)(Sc1cc(C(C)(C)C)c(O)c(C(C)(C)C)c1)Sc1cc(C(C)(C)C)c(O)c(C(C)(C)C)c1
4. Nc1c2ccccc2nc2ccccc12

0.951
0.374
1.03
0.825

###

# ASSAY_NAME: chemical genetic growth profiling, strain panel (AID 1159580);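 note: tested at 20 µM; growth read once vehicle control cultures reached saturation at 30 °C; 1 = growth at the plate median or of vehicle wells; lower values mean less growth of the strain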
# CONDITIONS_USED: S. cerevisiae deletion strains, growth OD, locus YPL153C, strain RAD53
Among all 5,500 compounds or so, about 2,000 (36%) were called active. Inconclusive results (about 18%) are left out. Rule as the data show it: active = normalized growth mostly below about 0.91 (no sharp cut-off); inconclusive = no clear call, values can overlap the other calls; inactive = mostly above about 0.92. Some of the results follow.
Your reply should match one of these outcome classes. active, inactive

Worked set:
COMPOUND	ANSWER_LABEL
Cc1nc(-c2ccccn2)nc(SCc2ccccc2)c1Cl	inactive
COc1ccc2nc3ccccc3c(N)c2c1	active
O=C(NCCNc1ncc(C(F)(F)F)cc1Cl)C(F)(F)Sc1ccccc1	inactive
Cc1ccc(S(=O)(=O)n2c(Sc3ccc([N+](=O)[O-])cc3[N+](=O)[O-])nc3cc(C)ccc32)cc1	inactive
O=C(NCCNc1ncc(Cl)cc1C(F)(F)F)C(F)(F)Sc1ccccc1	inactive
Cc1csc(NC(=O)Nc2ccc(C(F)(F)F)cc2)c1Cl	inactive
Fc1ccc(NC(=S)N2CCCN(Cc3ccc(Cl)cc3Cl)CC2)cc1	inactive
O=C(NCCc1ccncc1)c1ccc(Cl)c(Cl)c1	inactive

Test call for this compound, please: S=C(NNC(=S)NC1CC2C=CC1C2)Nc1ccc(Br)c(Cl)c1 (stereo unspecified)
inactive

Test call for this compound, please: `Cc1ccc(C)c(CSc2nc(C3CCCCC3)c(C#N)c(=O)[nH]2)c1`
inactive

Test call for this compound, please: `Cc1nc(-c2ccccn2)nc(N(C)Cc2ccccc2)c1Cl`
inactive

###

# ASSAY_NAME: chemical genetic growth profiling, strain panel (AID 1159580);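 note: tested at 20 µM; growth read once vehicle control cultures reached saturation at 30 °C; 1 = growth at the plate median or of vehicle wells; lower values mean less growth of the strain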
# CONDITIONS_USED: S. cerevisiae deletion strains, growth OD, locus YGL227W, strain vid30, active compounds read low
Out of some 5,500 compounds screened, about 2,000 (36%) were called active. Inconclusive results (about 18%) are left out. This is one part of the list.
PARAMETER_MEASURED: normalized growth
Answers are plain numbers.

These recorded examples may help you get a feel for the data.
MOLECULE	MEASURED_VALUE
C/C=C(/C)C(=O)O[C@@H]1[C@H](OC(C)=O)[C@@]2(CO)C(CC1(C)C)C1=CCC3[C@@]4(C)CC[C@H](O[C@@H]5O[C@H](C(=O)O)[C@@H](O[C@@H]6O[C@H](CO)[C@@H](O)[C@H](O)[C@H]6O)[C@H](O)[C@H]5O[C@@H]5O[C@H](CO)[C@@H](O)[C@H](O)[C@H]5O)[C@](C)(CO)C4CC[C@@]3(C)[C@]1(C)C[C@H]2O (stereo not given in full)	0.982
CCN1C[C@]2(OC(=O)c3ccccc3NC(C)=O)CCC(OC)[C@]34C1[C@H](CC23)[C@@]1(O)CC(OC)[C@H]2CC4C1(O)[C@H]2OC (stereo not given in full)	0.956
CC(CC(=O)C1OC1(C)C)C1C(=O)CC2(C)C3=CCC4C(C)(C)C(OC5OCC(O)C(O)C5O)CCC45CC35C(O)CC12C (stereo not given)	1.02
CC1(C)CC[C@@]2(C(=O)O)C(C1)C1=CCC3[C@@]4(C)CC[C@H](O)C(C)(C)C4CC[C@@]3(C)[C@]1(C)C[C@@H]2O (stereo not given in full)	1.01

Specify normalized growth for C[C@H]1[C@H](C)CC[C@]2(CO)CC[C@]3(C)C(=CCC4[C@@]5(C)CC[C@H](O)C(C)(C)C5CC[C@]43C)[C@H]12 (stereo not given in full) and stop.
0.999
